Assay: Plasma protein binding rate, CD-1 mouse plasma
Format: in vitro ADME
Conditions: plasma of CD-1 mouse, dialysis 4 hours at 37° C.
Method: The protein binding rate of Embodiment 6 in the plasma of human, CD-1 mouse and SD rat was determined, 796 μL of blank plasma was taken from human, CD-1 mice and SD rats, and 4 μL of test compound working solution (400 μM) or warfarin working solution (400 μM) was added to achieve a final concentration of the test compound and the warfarin in plasma samples of 2 μM. The samples were mixed thoroughly. […] Protein binding rate and recovery rate were calculated.
reported.metric: fraction unbound at 4 h, 2 μM
Give bare numbers.

Lookup: Using the record for COCCCOc1cc2c(cc1OC)-c1cc(=O)c(C(=O)O)cn1[C@H](C(C)(C)C)CO2 [Embodiment 6] , state its measured fraction unbound at 4 h, 2 μM.
Found: 0.498

###

biological target: CYP1A2 (Homo sapiens); construct: from tissue; host or cells: human liver microsomes; test: Inhibition of cytochrome P450 isoenzyme in human liver microsomes; format: in vitro ADME
Sequence (P05177 whole entry): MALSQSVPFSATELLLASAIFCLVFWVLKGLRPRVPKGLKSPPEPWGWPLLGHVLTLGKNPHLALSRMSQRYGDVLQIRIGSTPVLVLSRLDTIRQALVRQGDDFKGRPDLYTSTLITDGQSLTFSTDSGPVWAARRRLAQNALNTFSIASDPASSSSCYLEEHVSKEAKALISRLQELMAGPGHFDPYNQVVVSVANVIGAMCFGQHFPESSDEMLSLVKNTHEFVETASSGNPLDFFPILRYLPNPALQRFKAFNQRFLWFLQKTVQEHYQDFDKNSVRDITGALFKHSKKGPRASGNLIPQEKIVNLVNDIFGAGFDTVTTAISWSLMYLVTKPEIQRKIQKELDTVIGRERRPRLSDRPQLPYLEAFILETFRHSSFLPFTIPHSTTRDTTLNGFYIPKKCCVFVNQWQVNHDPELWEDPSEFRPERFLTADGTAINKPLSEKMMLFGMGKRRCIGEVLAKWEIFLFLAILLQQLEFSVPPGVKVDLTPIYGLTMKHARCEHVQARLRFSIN
pIC50: −log10 of the molar value.
reported.metric: pIC50

Lookup: Determine from records and report pIC50 for COCCCOc1cc2c(cc1OC)-c1cc(=O)c(C(=O)O)cn1[C@H](C(C)(C)C)CO2
Found: < 4.30

###

assay: Single-dose pharmacokinetic study on rat; format: in vivo, SD rats; settings: male, SD, plasma, IV: 1 mg/kg PO: 2 mg/kg
reported.metric: half-life (h)
Give bare numbers, in h.

Lookup: Item COCCCOc1cc2c(cc1OC)-c1cc(=O)c(C(=O)O)cn1[C@H](C(C)(C)C)CO2 : provide half-life
Found: 1.98

###

Assay: Plasma protein binding rate, SD rat plasma
Assay type: in vitro ADME
Conditions: plasma of SD rat, dialysis 4 hours at 37° C.
Description: The protein binding rate of Embodiment 6 in the plasma of human, CD-1 mouse and SD rat was determined, 796 μL of blank plasma was taken from human, CD-1 mice and SD rats, and 4 μL of test compound working solution (400 μM) or warfarin working solution (400 μM) was added to achieve a final concentration of the test compound and the warfarin in plasma samples of 2 μM. The samples were mixed thoroughly. […] Protein binding rate and recovery rate were calculated.
reported.metric: fraction unbound at 4 h, 2 μM
Give bare numbers.

Lookup: State its fraction unbound at 4 h, 2 μM for this compound: COCCCOc1cc2c(cc1OC)-c1cc(=O)c(C(=O)O)cn1[C@H](C(C)(C)C)CO2 [Embodiment 6]
Found: 0.406
